Values compiled from patent US20150291593A1.

Biological target: p110β/p85α (Homo sapiens, UniProt P42338)
Construct: purchased Millipore
Sequence (P42338 whole entry, species assumed): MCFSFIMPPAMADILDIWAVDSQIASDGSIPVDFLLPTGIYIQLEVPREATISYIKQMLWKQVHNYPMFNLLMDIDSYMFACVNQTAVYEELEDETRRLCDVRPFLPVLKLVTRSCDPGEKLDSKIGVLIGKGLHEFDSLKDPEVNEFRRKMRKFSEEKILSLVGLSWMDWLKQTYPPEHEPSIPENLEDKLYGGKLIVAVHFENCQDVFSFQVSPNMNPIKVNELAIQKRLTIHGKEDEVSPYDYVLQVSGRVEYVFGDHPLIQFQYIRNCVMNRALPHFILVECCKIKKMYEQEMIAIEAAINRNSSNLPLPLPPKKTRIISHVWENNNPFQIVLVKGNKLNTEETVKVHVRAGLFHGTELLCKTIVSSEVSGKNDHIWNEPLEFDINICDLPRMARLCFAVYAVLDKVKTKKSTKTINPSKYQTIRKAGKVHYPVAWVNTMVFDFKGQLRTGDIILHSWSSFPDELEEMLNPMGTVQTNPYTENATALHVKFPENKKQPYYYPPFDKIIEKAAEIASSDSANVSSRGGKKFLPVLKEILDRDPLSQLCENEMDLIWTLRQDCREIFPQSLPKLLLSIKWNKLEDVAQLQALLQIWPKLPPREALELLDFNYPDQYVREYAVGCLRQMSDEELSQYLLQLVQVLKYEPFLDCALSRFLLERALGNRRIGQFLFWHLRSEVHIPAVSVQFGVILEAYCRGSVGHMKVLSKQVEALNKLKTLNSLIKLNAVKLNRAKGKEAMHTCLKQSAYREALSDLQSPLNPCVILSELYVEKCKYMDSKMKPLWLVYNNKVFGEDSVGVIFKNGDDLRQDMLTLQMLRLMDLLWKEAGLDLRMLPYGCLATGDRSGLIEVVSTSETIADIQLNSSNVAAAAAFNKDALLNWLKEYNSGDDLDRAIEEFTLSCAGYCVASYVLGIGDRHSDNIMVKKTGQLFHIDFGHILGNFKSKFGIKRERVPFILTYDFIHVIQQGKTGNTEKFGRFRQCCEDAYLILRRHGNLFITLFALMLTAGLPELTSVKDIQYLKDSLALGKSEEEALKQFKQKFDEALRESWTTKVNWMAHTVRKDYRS
Sequence (P27986 whole entry partner, species assumed): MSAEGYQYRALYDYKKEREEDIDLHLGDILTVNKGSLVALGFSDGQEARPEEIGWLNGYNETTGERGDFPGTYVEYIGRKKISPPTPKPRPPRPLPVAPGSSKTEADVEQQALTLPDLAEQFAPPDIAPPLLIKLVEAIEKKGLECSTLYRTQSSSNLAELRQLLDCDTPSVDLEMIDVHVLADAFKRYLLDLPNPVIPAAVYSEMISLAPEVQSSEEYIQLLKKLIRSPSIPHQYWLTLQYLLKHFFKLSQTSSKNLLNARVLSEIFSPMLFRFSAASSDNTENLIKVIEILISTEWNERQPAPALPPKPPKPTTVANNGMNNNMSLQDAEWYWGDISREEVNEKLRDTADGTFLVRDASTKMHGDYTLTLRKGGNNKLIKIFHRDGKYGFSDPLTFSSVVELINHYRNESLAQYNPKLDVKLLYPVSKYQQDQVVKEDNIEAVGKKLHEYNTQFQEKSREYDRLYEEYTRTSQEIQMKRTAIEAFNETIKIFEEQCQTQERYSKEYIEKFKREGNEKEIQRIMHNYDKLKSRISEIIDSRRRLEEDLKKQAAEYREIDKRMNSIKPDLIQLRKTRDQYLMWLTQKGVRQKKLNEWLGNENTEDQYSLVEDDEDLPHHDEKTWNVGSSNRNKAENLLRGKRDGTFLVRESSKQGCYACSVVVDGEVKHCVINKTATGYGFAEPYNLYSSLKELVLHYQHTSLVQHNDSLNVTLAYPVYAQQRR
Assay: Transcreener KINASE Assay, kinase inhibition of p110β/p85α
Type: biochemical
Details: @ 1 uM
Observable: PI3Kβ IH % @ 1 uM (%)

>  <Compound>
N#Cc1c[nH]c2ncnc(N3CCC[C@H]3c3nn4cccc4c(=O)n3-c3ccccc3)c12

>  <Data value>
47.7

$$$$

1: N#Cc1c(N)ncnc1N1CCC[C@H]1c1nn2cccc2c(=O)n1-c1ccccc1
2: CC(Nc1ncnc2[nH]cc(C#N)c12)c1cn2ccc(Cl)c2c(=O)n1-c1cccc(F)c1 (stereo not shown)
3: Nc1ncnc(N2CCC[C@H]2c2nn3cccc3c(=O)n2-c2ccccc2)c1Cl
*Q* Returns the items ordered by PI3Kβ IH % @ 1 uM, from maximum to minimum. To answer, arrange all of the labels according to the requested order.
*A* 2, 1, 3
